This listing pairs compounds with measured melting point.

>>> recorded_measurement("Cc1cc2c(-c3cccc(C(F)(F)F)c3)ncnc2s1")
"70 to 72 °C"
>>> recorded_measurement("Cc1cc2nc(Cl)nc(-c3cccc(C(F)(F)F)c3)c2s1")
"174 to 176 °C (dec.)"
>>> recorded_measurement("CNc1nc(-c2ccc(C(F)(F)F)cc2)c2cc(C)sc2n1")
"233 °C"
>>> recorded_measurement("Cc1cc2nc(OC(C)C)nc(-c3cccc(C(F)(F)F)c3)c2s1")
"106 °C"
>>> recorded_measurement("Cc1cc2c(-c3cccc(C(F)(F)F)c3)nc(-c3ccc(C(F)(F)F)cc3)nc2s1")
"134 to 136 °C"

Return melting point for the following compound: Cc1cc2c(Oc3cccc(C(F)(F)F)c3)nc(OCC(F)(F)F)nc2s1
124 to 125 °C

Report melting point for Cc1cc2c(Oc3cccc(C(F)(F)F)c3)nc(CCC(F)(F)F)nc2s1
85 °C

Supply melting point value. Item: Cc1cc2c(-c3cccc(C(F)(F)F)c3)nc(O)nc2s1
251 to 253 °C (dec.)

// Input: Cc1cc2c(-c3cccnc3Cl)nc(O)nc2s1 . Output its melting point only.
> 300 °C

Read off the recorded melting point for Cc1cc2c(-c3cccc(Cl)c3)nc(Cl)nc2s1
118 to 120 °C

Quick one: give measured melting point for CSc1nc(-c2ccc(C(F)(F)F)cc2)c2cc(C)sc2n1
113 °C

Supply measured melting point of Cc1cc2c(-c3cccc(C(F)(F)F)c3)nc(C(=O)O)nc2s1 in your reply.
226 to 227 °C (dec.)

Name the recorded melting point of the compound listed here: Cc1cc2c(-c3sc(C=O)cc3C)nc(Cl)nc2s1
204 to 206 °C (dec.)

Please look at this compound and report its melting point: Cc1cc2c(-c3cccc(C(F)(F)F)c3)nc(C#N)nc2s1
121 to 122 °C

====

Reported Herbicidal effect Scirpus juncoides (herbicidal index) values for a set of compounds
Test system: Scirpus juncoides
Experiment: Submerged foliar treatment test (Test Example 3)
Type: in vivo
Settings: water depth 3 cm, cotyledon to 1-leaf stage, wettable powder, active ingredient 10 g/a, 28th day from the treatment

Consider the following illustrative entries.
>>> recorded_measurement("Cc1cc2c(-c3ccccc3C(F)(F)F)nc(-n3ccnc3)nc2s1")
"3 (51 to 70)"
>>> recorded_measurement("Cc1cc2c(-c3cccc(C(F)(F)F)c3)nc(OS(=O)(=O)N(C)C)nc2s1")
"4 (71 to 90)"
>>> recorded_measurement("Cc1cc2c(-c3cccc(C(F)(F)F)c3)nc(OS(=O)(=O)CCCCl)nc2s1")
"4 (71 to 90)"
>>> recorded_measurement("Cc1cc2c(-c3cccc(SC(F)(F)F)c3)nc(OC3CCCC3)nc2s1")
"4 (71 to 90)"
>>> recorded_measurement("Cc1cc2c(-c3cccc(C(F)(F)F)c3)nc(Oc3ccccc3)nc2s1")
"2 (31 to 50)"
>>> recorded_measurement("Cc1cc2c(-c3cccc(SC(F)(F)F)c3)nc(OCC(F)F)nc2s1")
"4 (71 to 90)"
>>> recorded_measurement("CC(=O)OC1COCC1Oc1nc(-c2cccc(C(F)(F)F)c2)c2cc(C)sc2n1 (mixture of isomers)")
"4 (71 to 90)"
>>> recorded_measurement("Cc1cc2c(Oc3cccc(C(F)(F)F)c3)nc(-n3ccc(C(F)(F)F)n3)nc2s1")
"3 (51 to 70)"

// fetch Herbicidal effect Scirpus juncoides (herbicidal index) for Cc1cc2c(-c3cccc(C(F)(F)F)c3)nc(OS(=O)(=O)CCl)nc2s1 ; system: Scirpus juncoides
4 (71 to 90)

====

Below, each of the compounds is paired with its reported Herbicidal effect Scirpus juncoides (herbicidal index) value.
System: Scirpus juncoides
Assay: Submerged foliar treatment test (Test Example 3)
Type: in vivo
Settings: water depth 3 cm, cotyledon to 1-leaf stage, wettable powder, active ingredient 10 g/a, 28th day from the treatment

With Scirpus juncoides as the test system, provide measured Herbicidal effect Scirpus juncoides (herbicidal index) for this compound: Cc1cc2c(-c3cccc(SC(F)F)c3)nc(OCC(F)(F)F)nc2s1 [6-127]
4 (71 to 90)

# return Herbicidal effect Scirpus juncoides (herbicidal index) for Cc1cc2c(-c3cccc(C(F)(F)F)c3)nc(COCC(F)(F)F)nc2s1 [Compound No. 6-17] , test system: Scirpus juncoides
3 (51 to 70)

Please report Herbicidal effect Scirpus juncoides (herbicidal index) with Scirpus juncoides for item CCCOc1nc(-c2cccc(Cl)c2)c2cc(C)sc2n1 [6-52] .
3 (51 to 70)

Given Cc1cc2c(-c3cccc(C(F)(F)F)c3)nc(N(C)C)nc2s1 [6-169] , report its Herbicidal effect Scirpus juncoides (herbicidal index) on Scirpus juncoides.
2 (31 to 50)

Supply Herbicidal effect Scirpus juncoides (herbicidal index) measured with Scirpus juncoides for Cc1cc2c(-c3cccc(C(F)(F)F)c3)nc(-c3ccc(C(F)(F)F)cc3)nc2s1 [Compound No. 6-18] .
1 (6 to 30)

Specify the recorded Herbicidal effect Scirpus juncoides (herbicidal index) for CCOc1nc(-c2cccc(OC(F)(F)F)c2)c2cc(C)sc2n1 [6-34] , system: Scirpus juncoides.
5 (91 to 100)

Provide the reported Herbicidal effect Scirpus juncoides (herbicidal index) (system: Scirpus juncoides) for Cc1cc2c(-c3cccc(C(F)(F)F)c3)nc(S(C)(=O)=O)nc2s1 [6-174]
3 (51 to 70)

Fill in: Herbicidal effect Scirpus juncoides (herbicidal index) on Scirpus juncoides, entry Cc1cc2c(-c3ccccc3C(F)(F)F)nc(Cl)nc2s1 [Compound No. 5-3]
3 (51 to 70)

Report the value of Herbicidal effect Scirpus juncoides (herbicidal index) obtained on Scirpus juncoides for Cc1cc2c(-c3cccc(OC(F)F)c3)nc(OC(C)C)nc2s1 [6-41] .
4 (71 to 90)

====

System: Scirpus juncoides
Test: Submerged foliar treatment test (Test Example 3)
Format: in vivo
Settings: water depth 3 cm, cotyledon to 1-leaf stage, wettable powder, active ingredient 10 g/a, 28th day from the treatment
Readout: Herbicidal effect Scirpus juncoides (herbicidal index)

Specify the recorded Herbicidal effect Scirpus juncoides (herbicidal index) for Cc1cc2c(-c3cccc(SC(F)(F)F)c3)nc(OS(C)(=O)=O)nc2s1 [6-164] , system: Scirpus juncoides.
4 (71 to 90)

Look up Scirpus juncoides data: Herbicidal effect Scirpus juncoides (herbicidal index) of Cc1cc2c(-c3cccc(C(F)(F)F)c3)nc(C#N)nc2s1 [Compound No. 6-10] , then report it.
4 (71 to 90)

Please look at Cc1cc2c(-c3cccc(C(F)(F)F)c3)nc(OC(C)C(C)C)nc2s1 (centres unmarked) [6-72] and tell me its recorded Herbicidal effect Scirpus juncoides (herbicidal index) on Scirpus juncoides.
3 (51 to 70)

Retrieve Herbicidal effect Scirpus juncoides (herbicidal index) on Scirpus juncoides; query Cc1cc2c(-c3cccc(Br)c3)nc(OCC(C)(C)C)nc2s1 [6-60]
5 (91 to 100)

# return Herbicidal effect Scirpus juncoides (herbicidal index) for Cc1cc2c(-n3ccc(C(F)(F)F)n3)nc(-n3ccc(C(F)(F)F)n3)nc2s1 [6-200] , test system: Scirpus juncoides
3 (51 to 70)

====

Readout: melting point (°C)

>>> recorded_measurement("Cc1cc2c(-c3cccc(C(F)(F)F)c3)nc(Cl)nc2s1 [Compound No. 5-4]")
108
>>> recorded_measurement("Cc1cc2c(-c3sccc3C)nc(Cl)nc2s1 [Compound No. 5-22]")
127
